- Tested on: Salmonella typhi
- experimental.protocol: Antibacterial activity against Bacillus typhi after 24 hrs by twofold serial dilution method
- Assay type: functional, Salmonella enterica subsp. enterica serovar Typhi
- condition.info: Salmonella enterica
Parameter: MIC. Scope: all listed entries.
Report only the number, with the unit µg/mL understood.

Solved cases (2 shown):
compound | MIC (µg/mL)
O=C(/C(=C/c1ccc(Cl)cc1)n1cncn1)c1ccc(Cl)cc1 | 16
CCn1cc(C(=O)O)c(=O)c2cc(F)c(N3CCNCC3)cc21 [NORFLOXACIN] | 4

Sample O=C(N[C@H](CO)[C@H](O)c1ccc([N+](=O)[O-])cc1)C(Cl)Cl [CHLORAMPHENICOL] — what was its MIC?
32

Tell me the measured MIC of CN(C)c1ccc(/C=C(/C(=O)c2ccc(F)cc2F)n2cncn2)cc1 , please.
64

Return reported MIC; argument: O=C(/C(=C/c1ccccc1)n1cncn1)c1ccc(N2CCCC2)cc1N1CCCC1
8

Which MIC is listed for O=C(/C(=C/c1ccccc1)n1cncn1)c1ccc(F)cc1N1CCCC1 ?
4

MIC for O=C(/C(=C/c1ccccc1)n1cncn1)c1ccc(Cl)cc1 ?
64
